Assay: Determination of Efflux-Ratio (ER) in Caco-2 cells
Details: human, Caco-2, pH 7.4
attribute_measured: efflux ratio at 2 h, 1 μM

[in] For `Cn1cc(-c2ccc(CNc3cc(-c4cnc5cc(OCC(C)(C)O)ccn45)ncn3)cc2)cn1` , write its efflux ratio at 2 h, 1 μM.
[out] < 15

[in] For `Cn1cc(-c2ccc(CNc3cc(-c4cnc5cc(OCCCN6CCOCC6)ccn45)ncn3)cc2)cn1` , write its efflux ratio at 2 h, 1 μM.
[out] < 15

[in] For `Cc1nnc2n1CCN(CCOc1ccn3c(-c4cc(NCc5ccc(-c6cnn(C)c6)cc5)ncn4)cnc3c1)C2` , write its efflux ratio at 2 h, 1 μM.
[out] > 50

[in] For `F[C@H]1CCN(c2ccc(CNc3cc(-c4cnc5ccccn45)ncn3)cn2)C1` , write its efflux ratio at 2 h, 1 μM.
[out] < 15

[in] For CC(Nc1cc(-c2cnc3cc(OCCCN4CCCC4)ccn23)ncn1)c1ccc(-c2cnn(C)c2)cc1 (stereo not drawn) , write its efflux ratio at 2 h, 1 μM.
[out] > 50

[in] For `Cn1ncc(-c2ccc(CNc3cc(-c4cnc5cc(OCC6CCNCC6)ccn45)ncn3)cc2)n1` , write its efflux ratio at 2 h, 1 μM.
[out] > 50

[in] For `Cn1cc(-c2ccc(CNc3cc(-c4cnc5cc(OCCn6cccn6)ccn45)ncn3)cc2)cn1` , write its efflux ratio at 2 h, 1 μM.
[out] < 15

[in] For `Cn1cc(-c2ccc(CNc3cc(-c4cnc5cc(OCC6CCN(CC(F)F)CC6)ccn45)ncn3)cc2)cn1` , write its efflux ratio at 2 h, 1 μM.
[out] < 15

[in] For `OCCOc1ccn2c(-c3cc(NCc4ccc(-c5cocn5)cc4)ncn3)cnc2c1` , write its efflux ratio at 2 h, 1 μM.
[out] < 15

[in] For `Cn1cc(-c2ccc(CNc3cc(-c4cnc5cc(OCCN6CCC6)ccn45)ncn3)cc2)cn1` , write its efflux ratio at 2 h, 1 μM.
[out] 15 to 50

[in] For `Cn1ncc(-c2ccc(CNc3cc(-c4cnc5cc(OCCN6CC7(COC7)C6)ccn45)ncn3)cc2)n1` , write its efflux ratio at 2 h, 1 μM.
[out] < 15

[in] For `Cn1cc(-c2ccc(CNc3cc(-c4cnc5cc(OCC6CCN(C7COC7)CC6)ccn45)ncn3)cc2)cn1` , write its efflux ratio at 2 h, 1 μM.
[out] < 15

[in] For `Cn1cc(-c2ccc(CNc3cc(-c4cnc5cc(OCC6CCNCC6)ccn45)ncn3)cc2)cn1` , write its efflux ratio at 2 h, 1 μM.
[out] > 50

[in] For `Cn1ncc(-c2ccc(CNc3cc(-c4cnc5cc(OCCN6CCCC6)ccn45)ncn3)cc2)n1` , write its efflux ratio at 2 h, 1 μM.
[out] < 15

[in] For `Cn1cc(-c2ccc(CNc3cc(-c4cnc5cc(OCCCN6CCN(C7CC7)CC6)ccn45)ncn3)cc2)cn1` , write its efflux ratio at 2 h, 1 μM.
[out] < 15

[in] For `Cn1cc(-c2ccc(CNc3cc(-c4cnc5cc(OCC(C)(C)CN6CCCC6)ccn45)ncn3)cc2)cn1` , write its efflux ratio at 2 h, 1 μM.
[out] < 15

[in] For `Cn1cc(-c2ccc(CNc3cc(-c4cnc5cc(OCCN6CCOCC(F)(F)C6)ccn45)ncn3)cc2)cn1` , write its efflux ratio at 2 h, 1 μM.
[out] < 15

[in] For `Cn1cc(-c2ccc(CNc3cc(-c4cnc5cc(OCCN6CCOCC6)ccn45)ncn3)cc2)cn1` , write its efflux ratio at 2 h, 1 μM.
[out] < 15

[in] For Cn1cc(-c2ccc(CNc3cc(-c4cnc5cc(OCCN6CCN7CCC6C7)ccn45)ncn3)cc2)cn1 (stereo not drawn) , write its efflux ratio at 2 h, 1 μM.
[out] > 50

[in] For `COc1ccn2c(-c3cc(NCc4ccc(-c5cnn(CC6CC6)c5)cc4)ncn3)cnc2c1` , write its efflux ratio at 2 h, 1 μM.
[out] < 15

[in] For `COCCOc1ccn2c(-c3cc(NCc4ccc(-n5ccnn5)cc4)ncn3)cnc2c1` , write its efflux ratio at 2 h, 1 μM.
[out] < 15

[in] For `COc1ccn2c(-c3cc(NCc4ccc(-c5cnn(C)n5)cc4)ncn3)cnc2c1` , write its efflux ratio at 2 h, 1 μM.
[out] < 15

[in] For `COc1ccn2c(-c3cc(NCc4ccc(-n5ccnn5)cc4)ncn3)cnc2c1` , write its efflux ratio at 2 h, 1 μM.
[out] < 15

[in] For `COc1ccn2c(-c3cc(NCc4ccc(-c5coc(C)n5)cc4)ncn3)cnc2c1` , write its efflux ratio at 2 h, 1 μM.
[out] < 15

[in] For `CN(CC#N)CCOc1ccn2c(-c3cc(NCc4ccc(-c5cnn(C)c5)cc4)ncn3)cnc2c1` , write its efflux ratio at 2 h, 1 μM.
[out] < 15

[in] For `Cn1ncc(-c2ccc(CNc3cc(-c4cnc5cc(OCCCN6CCOCC6)ccn45)ncn3)cc2)n1` , write its efflux ratio at 2 h, 1 μM.
[out] < 15

[in] For `CN1CCN(CCOc2ccn3c(-c4cc(NCc5ccc(-c6cnn(C)c6)cc5)ncn4)cnc3c2)CC1` , write its efflux ratio at 2 h, 1 μM.
[out] < 15

[in] For `Cc1nc(-c2ccc(CNc3cc(-c4cnc5cc(OCCN6CCn7nncc7C6)ccn45)ncn3)cc2)co1` , write its efflux ratio at 2 h, 1 μM.
[out] 15 to 50

[in] For `Cn1cc(-c2ccc(CNc3cc(-c4cnc5cc(CCN6CCCC6)ccn45)ncn3)cc2)cn1` , write its efflux ratio at 2 h, 1 μM.
[out] < 15

[in] For `Cn1cc(-c2ccc(CNc3cc(-c4cnc5cc(-n6cncn6)ccn45)ncn3)cc2)cn1` , write its efflux ratio at 2 h, 1 μM.
[out] < 15

[in] For `Cn1cc(-c2ccc(CNc3cc(-c4cnc5cc(OCCN6CCC(F)(F)CC6)ccn45)ncn3)cc2)cn1` , write its efflux ratio at 2 h, 1 μM.
[out] < 15

[in] For `Cn1cc(-c2ccc(CNc3cc(-c4cnc5cc(OCCC6(N)COC6)ccn45)ncn3)cc2)cn1` , write its efflux ratio at 2 h, 1 μM.
[out] > 50

[in] For `Cn1ncc(-c2ccc(CNc3cc(-c4cnc5cc(OCCO)ccn45)ncn3)cc2)n1` , write its efflux ratio at 2 h, 1 μM.
[out] < 15

----------
Could you please report measured pIC50 for the items listed next?
Biological target: c-Kit(V654A) (Homo sapiens, UniProt P10721, V654A)
Construct: recombinant human c-Kit, amino acids 544-end containing the V654A mutation; GST (N)
Sequence (P10721 544-976 V654A): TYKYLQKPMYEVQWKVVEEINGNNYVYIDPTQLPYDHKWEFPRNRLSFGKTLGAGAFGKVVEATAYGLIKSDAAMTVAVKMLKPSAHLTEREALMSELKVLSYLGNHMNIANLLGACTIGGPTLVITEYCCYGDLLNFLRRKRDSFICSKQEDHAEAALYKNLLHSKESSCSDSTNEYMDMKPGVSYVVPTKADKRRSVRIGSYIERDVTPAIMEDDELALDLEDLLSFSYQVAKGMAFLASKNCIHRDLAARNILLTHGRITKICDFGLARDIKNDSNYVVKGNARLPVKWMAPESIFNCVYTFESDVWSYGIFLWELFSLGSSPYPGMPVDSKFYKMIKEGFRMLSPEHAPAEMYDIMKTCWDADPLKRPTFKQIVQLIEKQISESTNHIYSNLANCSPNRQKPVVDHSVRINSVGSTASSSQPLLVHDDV
Assay: c-Kit(V654A) assay (33P-ATP filter binding kinase assay)
Details: recombinant human c-Kit aa 544-end V654A, ATP 200 μM
Counter-ions that a name gives are not always drawn.
pIC50 field: float, defined as -log10 of concentration (mol/L).

[in] For `COc1ccn2c(-c3cc(NCc4ccc(-c5cnc(C)o5)cc4)ncn3)cnc2c1` , write its pIC50.
[out] 7.60

[in] For Cn1cc(-c2ccc(CNc3cc(-c4cnc5cc(OCCCN6CCCC6)ccn45)ncn3)cc2)cn1 [A75] , write its pIC50.
[out] 8.07

[in] For `CN(C)CCCOc1ccn2c(-c3cc(NCc4ccc(-c5cnn(C)n5)cc4)ncn3)cnc2c1` , write its pIC50.
[out] 8.70

[in] For `Cn1cc(-c2ccc(CNc3cc(-c4cnc5cc(C(F)(F)F)ccn45)ncn3)cc2)cn1` , write its pIC50.
[out] 7.89

[in] For `Cn1ncc(-c2ccc(CNc3cc(-c4cnc5cc(OCCCN6CC7(COC7)C6)ccn45)ncn3)cc2)n1` , write its pIC50.
[out] 8.49

[in] For `Cn1ncc(-c2ccc(CNc3cc(-c4cnc5cc(OCc6ccccn6)ccn45)ncn3)cc2)n1` , write its pIC50.
[out] 8.02

[in] For `Cn1cc(-c2ccc(CNc3cc(-c4cnc5cc(OCCCN6CC(F)(F)C6)ccn45)ncn3)cc2)cn1` , write its pIC50.
[out] 8.14

[in] For `Cn1cc(-c2ccc(CNc3cc(-c4cnc5cc(O)ccn45)ncn3)cc2)cn1` , write its pIC50.
[out] 7.42

[in] For `Cn1cc(-c2ccc(CNc3cc(-c4cnc5cc(OCC(C)(C)N6CCOCC6)ccn45)ncn3)cc2)cn1` , write its pIC50.
[out] 7.89

[in] For `Cc1cn(-c2ccn3c(-c4cc(NCc5ccc(-c6cnn(C)c6)cc5)ncn4)cnc3c2)cn1` , write its pIC50.
[out] 8.36

[in] For `COc1ccn2c(-c3cc(NCc4ccc(-c5ccc(C)nn5)cc4)ncn3)cnc2c1` , write its pIC50.
[out] 7.44

[in] For `Cn1cc(-c2ccc(CNc3cc(-c4cnc5cc(OCCN6CCCC6)ccn45)ncn3)cc2)cn1` , write its pIC50.
[out] 8.10

[in] For `COc1ccn2c(-c3cc(NCc4ccc(-c5cnc(C)nc5)cc4)ncn3)cnc2c1` , write its pIC50.
[out] 7.34

[in] For `Cc1nc2n(n1)CCN(CCOc1ccn3c(-c4cc(NCc5ccc(-c6cnn(C)c6)cc5)ncn4)cnc3c1)C2` , write its pIC50.
[out] 7.92

[in] For Cn1cc(-c2ccc(CNc3cc(-c4cnc5cc(OCCN6CC7CC6C[S+]7[O-])ccn45)ncn3)cc2)cn1 (stereo not drawn) , write its pIC50.
[out] 8.01

[in] For Cn1cc(-c2ccc(CNc3cc(-c4cnc5cc(OCCCN6CCCC6)ccn45)ncn3)cc2)cn1 [A75 hydrochloride] , write its pIC50.
[out] 8.24

[in] For `COc1ccn2c(-c3cc(NCc4ccc(-c5nnn(C)n5)cc4)ncn3)cnc2c1` , write its pIC50.
[out] 7.82

[in] For `c1cn(-c2ccc(CNc3cc(-c4cnc5cc(OCCN6CCCC6)ccn45)ncn3)cc2)nn1` , write its pIC50.
[out] 7.68

[in] For `Cn1cc(-c2ccc(CNc3cc(-c4cnc5cc(OCCOCCO)ccn45)ncn3)cc2)cn1` , write its pIC50.
[out] 8.07

[in] For `Cn1cc(-c2ccc(CNc3cc(-c4cnc5cc(OCC6CNC6)ccn45)ncn3)cc2)cn1` , write its pIC50.
[out] 8.12

[in] For `COc1ccn2c(-c3cc(NCc4ccc(-c5cnn(C)c5)cc4)ncn3)cnc2c1` , write its pIC50.
[out] 8.07

[in] For `Cn1ncc(-c2ccc(CNc3cc(-c4cnc5cc(OCCN6CCC(F)(F)C6)ccn45)ncn3)cc2)n1` , write its pIC50.
[out] 8.02

[in] For `Cn1cc(-c2ccc(CNc3cc(-c4cnc5cc(OCCCN6CCC(C)(F)CC6)ccn45)ncn3)cc2)cn1` , write its pIC50.
[out] 8.30

[in] For `Cn1cc(-c2ccc(CNc3cc(-c4cnc5cc(OCC6CCNCC6)ccn45)ncn3)cc2)cn1` , write its pIC50.
[out] 8.40

[in] For `COc1ccn2c(-c3cc(NCc4ccc(-c5cnn(C)n5)cn4)ncn3)cnc2c1` , write its pIC50.
[out] 7.57

[in] For `CN1CCO[C@H](COc2ccn3c(-c4cc(NCc5ccc(-c6cnn(C)n6)cc5)ncn4)cnc3c2)C1` , write its pIC50.
[out] 7.59

[in] For `Cn1cc(-c2ccc(CNc3cc(-c4cnc5cc(CCN6CCC(F)(F)C6)ccn45)ncn3)cc2)cn1` , write its pIC50.
[out] 7.49

[in] For CC(COc1ccn2c(-c3cc(NCc4ccc(-c5cnn(C)n5)cc4)ncn3)cnc2c1)CN1CCCC1 (stereo not drawn) , write its pIC50.
[out] 8.48

[in] For `Cn1cc(-c2ccc(CNc3cc(-c4cnc5cc(OCCN6CCn7cnnc7C6)ccn45)ncn3)cc2)cn1` , write its pIC50.
[out] 8.01

[in] For `c1nc(NCc2ccc(-c3cocn3)cc2)cc(-c2cnc3cc(OCCCN4CCCC4)ccn23)n1` , write its pIC50.
[out] 8.66

[in] For `Cn1cc(-c2ccc(CNc3cc(-c4cnc5cc(OCCCn6cccn6)ccn45)ncn3)cc2)cn1` , write its pIC50.
[out] 7.80

[in] For `Cn1ncc(-c2ccc(CNc3cc(-c4cnc5cc(OCCCN6CCN(C7COC7)CC6)ccn45)ncn3)cc2)n1` , write its pIC50.
[out] 8.17

[in] For `COc1ccn2c(-c3cc(OCc4ccc(-c5cnn(C)c5)cc4)ncn3)cnc2c1` , write its pIC50.
[out] 7.89
